Where these numbers come from: PubChem BioAssay AID1963874

Reported viability, T/C values are given for each entry in this list.
system: 253994-281-T-J1-PDC KRAS-mutant spheroids with HUVEC/MSC, viability; test: Anticancer human tumor 253994-281-T-J1-PDC patient-derived colorectal carcinoma cell line growth inhibition [KRAS2]; conditions: second compound 0.1 µM; first compound 0.1 µM; hits give low values;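 also: spheroids exposed to agents for seven days before readout; percent of DMSO vehicle control viability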
Write the answer as a number in %, unit excluded.

MOLECULE | TESTED_ON | viability, T/C (%)
COC(=O)c1ccc2c(C(=Nc3ccc(N(C)C(=O)CN4CCN(C)CC4)cc3)c3ccccc3)c(O)[nH]c2c1 + COc1cc2nc(C)nc(NC(C)c3cc(N)cc(C(F)(F)F)c3)c2cc1OC1CCOC1 | 253994-281-T-J1-PDC KRAS-mutant spheroids with HUVEC/MSC, viability | 103
CC1OCC2(CCN(c3cnc(Sc4ccnc(N)c4Cl)c(N)n3)CC2)C1N (stereo unspecified) + CNCc1ccccc1-c1csc(C(C)Nc2nc(C)nc3cc(OC)c(OC)cc23)c1 | 253994-281-T-J1-PDC KRAS-mutant spheroids with HUVEC/MSC, viability | 96.7
Cn1nccc1Nc1nccc(-c2cc3c(s2)C(C)(C)N(CCN2CCOCC2)C3=O)n1 + CC1OCC2(CCN(c3cnc(Sc4ccnc(N)c4Cl)c(N)n3)CC2)C1N | 253994-281-T-J1-PDC KRAS-mutant spheroids with HUVEC/MSC, viability | 82.9
CC1OCC2(CCN(c3cnc(Sc4ccnc(N)c4Cl)c(N)n3)CC2)C1N (stereo unspecified) + C=CC(=O)N1CCN(c2nc(=O)n(-c3c(C)ccnc3C(C)C)c3nc(-c4c(O)cccc4F)c(F)cc23)C(C)C1 | 253994-281-T-J1-PDC KRAS-mutant spheroids with HUVEC/MSC, viability | 87.4
CC(C)n1nc(-c2ccc3oc(N)nc3c2)c2c(N)ncnc21 + CC1OCC2(CCN(c3cnc(Sc4ccnc(N)c4Cl)c(N)n3)CC2)C1N | 253994-281-T-J1-PDC KRAS-mutant spheroids with HUVEC/MSC, viability | 56.9

Next:
Request: What measured viability, T/C goes with CN(C)C/C=C/C(=O)Nc1cc2c(Nc3ccc(F)c(Cl)c3)ncnc2cc1O[C@H]1CCOC1 + CNCc1ccccc1-c1csc(C(C)Nc2nc(C)nc3cc(OC)c(OC)cc23)c1 ?
Response: 54.7
